Test system: HOP-92 NSCLC
Test: NCI tumour cell line growth inhibition, 48 h; in the data active = GI50 below about 0.43 µM; inactive = the rest
Possible outcomes: active, inactive

>>> class_label("Ic1ccc2[nH]cc(SSc3c[nH]c4ccc(I)cc34)c2c1")
"inactive"
>>> class_label("CC(=O)OCC1OC(OC2=C(CC=C(C)C)C(=O)c3ccccc3C2=O)C(OC(C)=O)C(OC(C)=O)C1OC(C)=O (stereo not given)")
"inactive"
>>> class_label("COc1ccc(C2=C(c3cn(C)c4ccccc34)C(=O)NC2=O)cc1")
"inactive"
>>> class_label("O=C1NC(=NCCc2cccs2)S/C1=C\\c1ccc2ncccc2c1")
"inactive"
>>> class_label("COc1cc2c3c(n(CCCN=[N+]=[N-])c(=O)c2cc1OC)-c1ccc(C#N)cc1C3=O")
"inactive"
>>> class_label("CC(=O)Nc1ccc(-c2csc(Nc3ccc(-c4csc(-c5ccccc5)n4)cc3)n2)cc1")
"inactive"
>>> class_label("CCc1c2c(nc3ccc(O)cc13)-c1cc3c(c(=O)n1C2)COC(=O)[C@]3(O)CC")
"active"
>>> class_label("COc1cc(Nc2cc(C)nc(N3CCN(c4ccnc5cc(Cl)ccc45)CC3)n2)cc(OC)c1")
"active"
>>> class_label("CCOC(=O)c1cc(C(=O)c2ccc(Cl)cc2)n2ccc(-c3cc[n+](CC(=O)c4ccc(OC)cc4)cc3)cc12")
"inactive"
>>> class_label("COc1cc2c(cc1O)N=C[C@@H]1C[C@@H](F)CN1C2=O")
"active"
>>> class_label("O=C(OC(CNc1c(C(=O)c2ccccc2)c(=O)n(Cc2ccccc2)c(=O)n1Cc1ccccc1)CN1CCOCC1)c1ccccc1 (stereo not given)")
"inactive"
>>> class_label("CC1(C)CCC(S(=O)(=O)c2ccc3c(c2)/C(=N\\O)c2cc(S(=O)(=O)N4CCN(c5ccc(F)cc5O)CC4)ccc2-3)CC1")
"active"
>>> class_label("CCOC(=O)c1cc(NC(=O)c2cc(NC(=O)c3cc(NC(=O)c4c(-c5ccccc5)noc4C)cn3C)cn2C)cn1C")
"active"
>>> class_label("CC#Cc1nc2ccccc2c(=O)[nH]1")
"inactive"
>>> class_label("COc1cccc2c1C(CO)N1C(C#N)C3CC(C(=O)O)C(C1C2)N3C (stereo not given)")
"active"

====

Test system: OVCAR-4 ovarian
Assay: NCI tumour cell line growth inhibition, 48 h; in the data active = GI50 below about 0.43 µM; inactive = the rest
Possible outcomes: active, inactive

>>> class_label("COc1ccc(C2=C(c3cn(C)c4ccccc34)C(=O)NC2=O)cc1")
"inactive"
>>> class_label("O=c1c2cc(I)ccc2nc(-c2cccs2)n1-c1ccc(S(=O)(=O)Nc2nccs2)cc1")
"inactive"
>>> class_label("Cc1cc(C)c(CNC(=O)c2cc(-c3ccc(CN4CCOCC4)cc3)cc3c2cnn3C2CCCC2)c(=O)[nH]1")
"inactive"
>>> class_label("CC1(C)CCC(S(=O)(=O)c2ccc3c(c2)/C(=N\\O)c2cc(S(=O)(=O)N4CCN(c5ccc(F)cc5O)CC4)ccc2-3)CC1")
"active"
>>> class_label("COc1cc(C(=O)/C=C/c2c(-c3cccs3)nc3sc(C)cn23)cc(OC)c1OC")
"inactive"
>>> class_label("O=C1OCC2=C1C(c1cccc(F)c1)c1cc3c(cc1N2CCO)CCC3 (centres undefined)")
"inactive"
>>> class_label("CC(C)=CC(=O)OCC(=O)O[C@@H]1C[C@]2(C(C)C)O[C@@]1(C)[C@@H]1CC[C@@H](C)[C@H]1[C@@H]2OC(=O)/C=C/c1ccccc1")
"inactive"
>>> class_label("COc1cc(OC)cc(Oc2nc3cc(N)cc(N)c3nc2-c2ccccc2)c1")
"inactive"
>>> class_label("c1cc(N2CCCC2)c2nc(-c3[nH]ncc3Nc3ncnc4[nH]ccc34)[nH]c2c1")
"active"

====

Tested on: UO-31 renal
Experiment: NCI tumour cell line growth inhibition, 48 h; in the data active = GI50 below about 0.43 µM; inactive = the rest
Outcomes: active, inactive

>>> class_label("COc1cc(/C=C/C(=O)c2cc(OC)c(OC)c(OC)c2)ccc1Oc1nc2c(c(=O)n(C)c(=O)n2C)n1C")
"inactive"
>>> class_label("COc1ccc2c(c1)N(CCO)C1=C(C(=O)OC1)C2c1cc(OC)c(OC)c(OC)c1 (stereo not drawn)")
"active"
>>> class_label("Cn1nc(-c2cccs2)cc1/N=C(\\N)C(C)(C#N)Cc1ccccc1 (stereo not drawn)")
"inactive"
>>> class_label("O=C1C=CC(=O)c2c1c1c(c3c2C2c4ccccc4C3c3ccccc32)C2c3ccccc3C1c1ccccc12")
"inactive"
>>> class_label("COc1cc2c(cc1O)N=C[C@@H]1C[C@@H](F)CN1C2=O")
"inactive"
>>> class_label("O=C(OC(CNc1c(C(=O)c2ccccc2)c(=O)n(Cc2ccccc2)c(=O)n1Cc1ccccc1)CN1CCOCC1)c1ccccc1 (stereo not drawn)")
"inactive"
>>> class_label("CC1=C(SCCC(=O)OCC(=O)NCCC[Te]c2ccccc2)C(=O)c2ccccc2C1=O")
"inactive"
>>> class_label("Nc1nc(-c2cccc3ccccc23)cc2ccccc12")
"inactive"
>>> class_label("N#CC(C#N)=C/C=C(\\Sc1ccc(F)c(Cl)c1)c1ccc(Cl)cc1")
"inactive"
>>> class_label("COc1ccc2c(CCC(c3ccccc3)c3ccccc3)c3[n+](cc2c1OC)CCc1cc2c(cc1-3)OCO2")
"inactive"
>>> class_label("COc1ccc2[nH]c3c(C)c4ccnc(NCCCN(C)CCCNc5ccc6nnn7c8ccccc8c(=O)c5c67)c4c(C)c3c2c1")
"inactive"
>>> class_label("COc1cc(-n2cncc2-c2ccc3ccccc3c2)cc(OC)c1OC")
"active"
>>> class_label("CC(C)(C)N=Cc1ccccc1[O-].CC(C)(C)N=Cc1ccccc1[O-].[Co+2]")
"inactive"
>>> class_label("O=c1c(O)c(O)c1=O.[NH2-].[NH2-].[NH2-].[NH2-].[NH2-].[Ru+5]")
"inactive"
>>> class_label("CC(=O)OCC1OC(OC2=C(CC=C(C)C)C(=O)c3ccccc3C2=O)C(OC(C)=O)C(OC(C)=O)C1OC(C)=O (stereo not drawn)")
"inactive"
>>> class_label("CCN(CC)c1ccc(N=O)cc1")
"inactive"
>>> class_label("CC(=O)Nc1ccc(-c2csc(Nc3ccc(-c4csc(-c5ccccc5)n4)cc3)n2)cc1")
"inactive"
>>> class_label("O=C1OCC2=C1C(c1cccc(F)c1)c1cc3c(cc1N2CCO)CCC3 (stereo not drawn)")
"active"

====

Test system: SF-268 CNS
Test: NCI tumour cell line growth inhibition, 48 h; in the data active = GI50 below about 0.43 µM; inactive = the rest
Outcome codes: active, inactive

>>> class_label("COC1C(CO)OC(n2c3ccccc3c3c4c(c5c6ccccc6[nH]c5c32)C(=O)NC4=O)C(OC(=O)C(N)CCCCN)C1O (centres undefined)")
"active"
>>> class_label("CC(C)(C)c1[nH]nc2c1C(c1cc3ccccc3[nH]c1=O)Nc1cc(C(=O)Nc3ccc(Cl)cc3)ccc1N2 (centres undefined)")
"inactive"
>>> class_label("Nc1nc2c(c3cnccc13)C(c1cccc(Br)c1)Cc1cnccc1-2 (centres undefined)")
"inactive"
>>> class_label("c1cc(N2CCCC2)c2nc(-c3[nH]ncc3Nc3ncnc4[nH]ccc34)[nH]c2c1")
"active"

====

System: A498 renal
Test: NCI tumour cell line growth inhibition, 48 h
Let's look at some compounds and their measured TGI.
quantity_name: TGI (µM)

>>> recorded_result("COc1cc2c(cc1O)N=C[C@@H]1C[C@@H](F)CN1C2=O")
2.89
>>> recorded_result("O=C1Nc2c(Cl)cc(Cl)cc2/C1=N/N=C/c1ccccc1O")
36.9

====

Measured log10 of TGI, listed per entry for reference.
Tested on: HL-60(TB) leukemia
Experiment: NCI tumour cell line growth inhibition, 48 h
quantity_name: log10 of TGI (log10 of the value in µM)

>>> recorded_result("Nc1nc2c(c3cnccc13)C(c1cccc(Br)c1)Cc1cnccc1-2 (stereo not given)")
-0.02
>>> recorded_result("C[C@H](CCC(=O)NN)[C@H]1CC[C@H]2[C@@H]3CC[C@@H]4C[C@H](O)CC[C@]4(C)[C@H]3CC[C@]12C")
1.58
>>> recorded_result("CCOC(=O)[C@@H]1C2C(=C[C@H]3[C@H]1C(=O)N1CCCC[C@H]31)CCCN2C(=O)OCc1ccccc1 (stereo not given in full)")
1.65
>>> recorded_result("O=c1[nH]c2cc(C(F)(F)F)ccc2nc1CBr")
1.16
>>> recorded_result("O=C(CC(=O)Nc1ccccc1Cl)NNC(c1cc(N=Nc2ccc(Br)cc2)ccc1O)P(O)O (stereo not given)")
0.07
>>> recorded_result("Cc1ccc2nc(C=Nc3ccccc3Cl)cc(C)c2c1")
1.26

====

Measured TGI accompanies every entry in the list below.
Tested on: A549 NSCLC
Test: NCI tumour cell line growth inhibition, 48 h
quantity_name: TGI

>>> recorded_result("Cc1ccccc1N=Nc1cc(C)c(N=Nc2c(O)ccc3ccccc23)cc1C")
"> 100 µM"
>>> recorded_result("Cc1cc2c(c(C(N)=O)c1C)-c1cccc(Cl)c1C2=O")
"> 100 µM"
>>> recorded_result("Nc1nc[n+](Cc2ccccc2CCO)c2nc[nH]c12")
"> 100 µM"
>>> recorded_result("OCCNc1ncnc2nc[nH]c12")
"> 100 µM"
>>> recorded_result("COc1ccc2c(CCC(c3ccccc3)c3ccccc3)c3[n+](cc2c1OC)CCc1cc2c(cc1-3)OCO2")
"5.07 µM"
>>> recorded_result("O=c1c(O)c(O)c1=O.[NH2-].[NH2-].[NH2-].[NH2-].[NH2-].[Ru+5]")
"> 100 µM"
>>> recorded_result("O=c1[nH]c2cc(C(F)(F)F)ccc2nc1CBr")
"27.4 µM"
>>> recorded_result("O=C1c2ccccc2C(=O)N1C/C=N/NS(=O)(=O)c1ccc2ccccc2c1")
"> 100 µM"
>>> recorded_result("Cc1ccc(C[N+](C)(C)N)cc1C")
"> 10 µM"
>>> recorded_result("COC(=O)[C@@H](Nc1ccccc1)[C@@]1(C(=O)OC)SC12c1ccccc1-c1ccccc12")
"> 100 µM"
>>> recorded_result("CC(=O)Nc1cc(C(=O)Nc2cc(C(=O)Nc3cc(C(=O)Nc4cc(C(=O)Nc5cc(C(=O)NCCC(=O)NCCCN(C)C)n(C)c5)n(C)c4)n(C)c3)n(C)c2)n(C)c1")
"> 100 µM"
>>> recorded_result("COC1(OC)C[C@H](C)[C@@]23O[C@]24C2=CC(=O)C=CC2=N[C@H]3C#C/C=C\\C#C[C@]14O")
"1.78 µM"
>>> recorded_result("COc1cc2c(cc1OC)C1C(O)C(OC)C(Br)C3(Br)CCN(C2)C13 (configuration not stated)")
"> 100 µM"
>>> recorded_result("COc1c(CC(=O)c2ccccc2)c2ccccc2n1C(C)=O")
"> 100 µM"
>>> recorded_result("O=C(Nc1ccn(C2CC(O)C(CO)O2)c(=O)n1)c1ccccc1 (configuration not stated)")
"> 100 µM"
>>> recorded_result("COc1cc(/C=N/N=C(\\N)NO)cc(Cl)c1O")
"> 100 µM"
>>> recorded_result("Nc1nc(N)nc(-c2ccccc2NS(=O)(=O)c2ccc([N+](=O)[O-])cc2)n1")
"> 100 µM"
>>> recorded_result("O=C(O)/C=N/NC(=S)NC1CCCCC1")
"> 100 µM"
>>> recorded_result("C/C(=N\\N(C)C)C(CN1CCCCC1)C(c1ccccc1)c1c(O)c2ccccc2oc1=O (configuration not stated)")
"> 100 µM"
>>> recorded_result("CC(C)(O)c1coc(S(=O)(=O)/N=C(\\O)Nc2c3c(cc4c2CCC4)CCC3)c1")
"> 100 µM"
>>> recorded_result("Nc1ccc2c(c1)Cc1cc(Cl)c(Cl)cc1-2")
"> 100 µM"
>>> recorded_result("COc1cccc2c1C(=O)c1c(O)c3c(c(O)c1C2=O)CC(O)(C(O)CO)CC3OC1CC2C(OC3COCC(C#N)N32)C(C)O1 (configuration not stated)")
"> 100 µM"
>>> recorded_result("O=c1c2sc3nc(NCCN4CCCCC4)ncc3c2ncn1-c1ccccc1")
"> 100 µM"
>>> recorded_result("CCN(CC)c1ccc(N=O)cc1")
"5.56 µM"
>>> recorded_result("COc1cc2c[n+]3ccc4cc(OC)c(OC)cc4c3cc2cc1O")
"> 100 µM"
>>> recorded_result("COC(=O)c1c2c(c[n+]([O-])c1C)C(=O)C=C(NCc1ccccc1)C2=O")
"0.564 µM"
>>> recorded_result("O=C(c1ccccc1)N1C2C3CC(OCc4ccccc4)(OCc4ccccc4)C(O3)C21 (configuration not stated)")
"> 100 µM"
>>> recorded_result("C=CCNC(=O)/C=C\\C(=O)O")
"> 100 µM"
>>> recorded_result("Cc1ncc(CCl)c2c1OC(C)(C)OC2")
"> 100 µM"
>>> recorded_result("Nc1nc(-c2cccc3ccccc23)cc2ccccc12")
"14.9 µM"
>>> recorded_result("CCOC(=O)N1C=NC23C(c4ccccc4)C(c4ccccc4)C12C(=O)N(C)C(=O)N3C (configuration not stated)")
"> 100 µM"
>>> recorded_result("Cc1nc(-c2nc(C)c(C(=O)/C=C/c3ccc(N(C)C)cc3)s2)sc1C(=O)/C=C/c1ccc(N(C)C)cc1")
"> 100 µM"
>>> recorded_result("CSC1(C)CC2C(CC1N1CCCCC1)C2(C)C (configuration not stated)")
"> 100 µM"
>>> recorded_result("Cc1ccc(S(=O)(=O)NC(CCC(=O)NN)C(=O)NN)cc1 (configuration not stated)")
"> 100 µM"
>>> recorded_result("COC(=O)C1=C(C)NC(C)=C(C(=O)OC)C1c1ccc(NO)cc1")
"43.5 µM"
>>> recorded_result("COC(=O)CNC(=O)c1cc(C)cc2c1Oc1c(cc(C)cc1C(=O)NCC(=O)OC)S2")
"> 100 µM"
>>> recorded_result("Cc1ncc([N+](=O)[O-])n1CC(O)Cn1ccnc1[N+](=O)[O-] (configuration not stated)")
"> 100 µM"
>>> recorded_result("Cc1cc(S(=O)(=O)Nc2nc(N)nc(N(C)C)n2)c(S)cc1Cl")
"> 10 µM"
>>> recorded_result("O=C(C(=NC12CC3CC(CC(C3)C1)C2)NNc1ccc([N+](=O)[O-])cc1[N+](=O)[O-])C(Br)C(=O)c1ccccc1 (configuration not stated)")
"> 10 µM"
>>> recorded_result("C[C@]12CC(c3ccccc3O1)C(C(N)=O)C(=O)N2 (some centres not stated)")
"> 100 µM"
>>> recorded_result("Cn1cc(C2=C(Sc3ccccc3)C(=O)NC2=O)c2ccccc21")
"> 25 µM"
>>> recorded_result("C=CCN(C(=O)OC(C)(C)C)C1=CC2C(C)=CN(S(=O)(=O)c3ccccc3)C2C(OCc2ccccc2)=C1 (configuration not stated)")
"> 100 µM"
